The reported measurements were obtained from the supplement of paper PMC7801607.

test system: Plasmodium falciparum NF54 stage IV/V gametocytes; assay: % inhibition of gametocyte viability (PrestoBlue); higher = more inhibition; conditions: 1 µM; 48 h
property_name: % inhibition of gametocyte viability (%)
Return type: number; implicit unit %.

Can you look up the measured % inhibition of gametocyte viability of CC(=O)N1c2ccccc2NC2=C(C(=O)CC(C)(C)C2)C1c1ccc(OCc2ccccc2)cc1 (centres undefined) for me?
27.1

Can you look up the measured % inhibition of gametocyte viability of O=C(O)COc1cccc2c1CC[C@](O)(COC(=O)N(c1ccccc1)c1ccccc1)C2 for me?
23.2

Can you look up the measured % inhibition of gametocyte viability of O=C(NC(=O)N1CCCc2ccccc21)c1ccc(Cl)cc1Cl for me?
0.538

###

system: Plasmodium falciparum NF54 stage IV/V gametocytes; assay: % inhibition of gametocyte viability (luciferase reporter); higher = more inhibition; conditions: 5 µM; 48 h
property_name: % inhibition of gametocyte viability

Can you look up the measured % inhibition of gametocyte viability of FC(F)(F)Oc1ccc(Nc2ccc3cccc(Cl)c3n2)cc1 for me?
< 0%

Can you look up the measured % inhibition of gametocyte viability of CC[C@H]1OC(=O)[C@H](C)[C@@H](O[C@H]2C[C@@](C)(OC)[C@@H](O)[C@H](C)O2)[C@H](C)[C@@H](O[C@@H]2O[C@H](C)C[C@H](N(C)C)[C@H]2O)[C@](C)(O)C[C@@H](C)C(=O)[C@H](C)[C@@H](O)[C@]1(C)O for me?
< 0%

Can you look up the measured % inhibition of gametocyte viability of CC[C@@H](CO)NCCN[C@@H](CC)CO for me?
< 0%

Can you look up the measured % inhibition of gametocyte viability of CC(C)(C)OC(=O)NCc1ccc(C(=O)N[C@H]2CCOC2=O)cc1 for me?
< 0%

Can you look up the measured % inhibition of gametocyte viability of CC(=O)Nc1cc(NS(=O)(=O)c2ccc(Cl)cc2)cc2c(Cl)n[nH]c12 for me?
< 0%

Can you look up the measured % inhibition of gametocyte viability of O=C(Nc1nnc(-c2ccc(Cl)cc2)o1)c1nc2ccccc2s1 for me?
< 0%

Can you look up the measured % inhibition of gametocyte viability of CNC(=O)C1O[C@@H](n2cnc3c(NCc4cccc(I)c4)nc(Cl)nc32)[C@H](O)[C@@H]1O (some centres undefined) for me?
< 0%

Can you look up the measured % inhibition of gametocyte viability of Cc1nc(Nc2ccc(F)cc2)nc(N2CCc3ccccc3C2C)c1C (centres undefined) for me?
< 0%

Can you look up the measured % inhibition of gametocyte viability of Cc1cc(C2CCCCC2)n(O)c(=O)c1 for me?
< 0%

Can you look up the measured % inhibition of gametocyte viability of CC(C)Oc1ccc(-n2cnc3cc(/C=C\c4ccc(C(C)(C)O)cc4)ccc32)cc1 for me?
< 0%

Can you look up the measured % inhibition of gametocyte viability of CCc1cc(O)c(Oc2ccc(C(N)=O)cc2F)cc1F for me?
< 0%

Can you look up the measured % inhibition of gametocyte viability of CC(C)c1ccc(COc2cccc(-c3cc(S(C)=O)c(C#N)c(=O)[nH]3)c2)cc1 (centres undefined) for me?
< 0%

Can you look up the measured % inhibition of gametocyte viability of CC#C[C@]1(O)CC[C@H]2[C@@H]3CCC4=CC(=O)CCC4=C3[C@@H](c3ccc(N(C)C)cc3)C[C@@]21C for me?
< 0%

Can you look up the measured % inhibition of gametocyte viability of COC(=O)Nc1nc2c(C)cccc2[nH]1 for me?
< 0%

Can you look up the measured % inhibition of gametocyte viability of CC(Oc1ccc(Cl)cc1Cl)C(=O)NCc1ccc2c(c1)OCO2 (centres undefined) for me?
< 0%

Can you look up the measured % inhibition of gametocyte viability of C=C(C)[C@@H]1CC[C@]2(C(=O)O)CC[C@]3(C)[C@H](CC[C@@H]4[C@@]5(C)CC[C@H](O)C(C)(C)[C@@H]5CC[C@]43C)[C@@H]12 for me?
< 0%

Can you look up the measured % inhibition of gametocyte viability of CCC(C)n1ncn(-c2ccc(N3CCN(c4ccc(OCC5COC(Cn6cncn6)(c6ccc(Cl)cc6Cl)O5)cc4)CC3)cc2)c1=O (centres undefined) for me?
< 0%

Can you look up the measured % inhibition of gametocyte viability of O=C(/C=C/n1cnc(-c2cc(C(F)(F)F)cc(C(F)(F)F)c2)n1)NNc1cnccn1 for me?
< 0%

Can you look up the measured % inhibition of gametocyte viability of COc1cc(NCc2ccc3nc(N)nc(N)c3c2C)cc(OC)c1OC for me?
< 0%

###

Would you kindly list % viability of CHO cells for each of these molecules?
system: CHO; assay: % viability of CHO cells (MTT); higher = less toxic; details: 2 µM; 48 h
Return type: number; implicit unit %.

Can you look up the measured % viability of CHO cells of COc1ccc(SCC(=O)N2c3ccccc3Sc3ccccc32)cc1 for me?
91

Can you look up the measured % viability of CHO cells of CCNC(=O)Nc1cc(-c2ccccc2)c(-c2cncc(C(=O)O)c2)cn1 for me?
109

Can you look up the measured % viability of CHO cells of CCC(C)n1ncn(-c2ccc(N3CCN(c4ccc(OCC5COC(Cn6cncn6)(c6ccc(Cl)cc6Cl)O5)cc4)CC3)cc2)c1=O (centres undefined) for me?
119

Can you look up the measured % viability of CHO cells of CCc1ccccc1OCCN1CCCCCC1 for me?
96.9

Can you look up the measured % viability of CHO cells of Cc1nc2ccc(Oc3ccccc3)cc2c2c1CCN2CCc1ccccc1 for me?
77.5

Can you look up the measured % viability of CHO cells of NC(=O)c1[nH]c2ccc(S(N)(=O)=O)cc2c1-c1ccccc1 for me?
93.5

Can you look up the measured % viability of CHO cells of Nc1nc(O)c2ncn(COC(CO)CO)c2n1 for me?
83.5

Can you look up the measured % viability of CHO cells of CC(C)(C)NC(=O)[C@@H]1C[C@@H]2CCCC[C@@H]2CN1C[C@@H](O)[C@H](Cc1ccccc1)NC(=O)[C@H](CC(N)=O)NC(=O)c1ccc2ccccc2n1 for me?
89

Can you look up the measured % viability of CHO cells of CC[C@@H]1C(=O)OC[C@@H]1Cc1cncn1C for me?
111

Can you look up the measured % viability of CHO cells of O=C(O)C(Cc1c[nH]c2ccccc12)N1C(=O)c2ccccc2C1=O (centres undefined) for me?
89.9

Can you look up the measured % viability of CHO cells of Nc1nc(O)c(Br)c(-c2ccccc2)n1 for me?
89.3

Can you look up the measured % viability of CHO cells of Cc1cc(Nc2ccc(F)cc2)nc(SCc2nc3ccccc3[nH]2)n1 for me?
91.4

Can you look up the measured % viability of CHO cells of CC1(C)C[C@H]1C(=O)N/C(=C\CCCCSC[C@@H](N)C(=O)O)C(=O)O for me?
229

Can you look up the measured % viability of CHO cells of C(=C\c1nc2ccccc2[nH]1)/c1ccc2c(c1)OCO2 for me?
110

Can you look up the measured % viability of CHO cells of CCc1cc(Nc2cc(=O)n(CCN3CCN(C(=O)c4ccccc4)CC3)c(=O)[nH]2)ccc1C for me?
93.2

Can you look up the measured % viability of CHO cells of CC(C)Nc1ncnc2c1cnn2-c1ccc(Cl)cc1 for me?
89.8

Can you look up the measured % viability of CHO cells of O=c1nc(N2CCN(CC3CCCCC3)CC2)sc2c([N+](=O)[O-])cc(C(F)(F)F)cc12 for me?
95.8

Can you look up the measured % viability of CHO cells of O=C(O)CCNC(=O)c1ccccc1 for me?
112

Can you look up the measured % viability of CHO cells of CN1CCN(Cc2ccc(-c3cnc4[nH]cc(-c5ccc6[nH]ccc6c5)c4c3)cc2)CC1 for me?
68

###

tested on: Plasmodium falciparum NF54 asexual blood stage; test: % inhibition of asexual blood stage proliferation (pLDH); higher = more inhibition; conditions: 2 µM; 72 h
# cutoff 20% applies to % inhibition of asexual blood stage proliferation; >= gives 1 (yes), < gives 0 (no)

Is it the case that NC1C2CC3CC(C2)CC1C3 (configuration not stated) has % inhibition of asexual blood stage proliferation reaching or exceeding 20%?
1 (yes)

Is it the case that O=C(NC(=O)N1CCCc2ccccc21)c1ccc(Cl)cc1Cl has % inhibition of asexual blood stage proliferation reaching or exceeding 20%?
0 (no)

Is it the case that O=C(/C=C/n1cnc(-c2cc(C(F)(F)F)cc(C(F)(F)F)c2)n1)NNc1cnccn1 has % inhibition of asexual blood stage proliferation reaching or exceeding 20%?
0 (no)

Is it the case that COc1ccc(SCC(=O)N2c3ccccc3Sc3ccccc32)cc1 has % inhibition of asexual blood stage proliferation reaching or exceeding 20%?
0 (no)

Is it the case that Cc1nc2ccc(Oc3ccccc3)cc2c2c1CCN2CCc1ccccc1 has % inhibition of asexual blood stage proliferation reaching or exceeding 20%?
1 (yes)

Is it the case that CN1CCN(c2ccc3[nH]c(-c4ccc5[nH]c(-c6ccc(O)cc6)nc5c4)nc3c2)CC1 has % inhibition of asexual blood stage proliferation reaching or exceeding 20%?
1 (yes)

Is it the case that Cc1c(F)cccc1NC(=O)Nc1ccc(Cl)c(S(=O)(=O)[C@H]2CCCNC2)c1O has % inhibition of asexual blood stage proliferation reaching or exceeding 20%?
0 (no)
